Biological target: PDE4B (Homo sapiens)
Sequence (Q07343 whole entry): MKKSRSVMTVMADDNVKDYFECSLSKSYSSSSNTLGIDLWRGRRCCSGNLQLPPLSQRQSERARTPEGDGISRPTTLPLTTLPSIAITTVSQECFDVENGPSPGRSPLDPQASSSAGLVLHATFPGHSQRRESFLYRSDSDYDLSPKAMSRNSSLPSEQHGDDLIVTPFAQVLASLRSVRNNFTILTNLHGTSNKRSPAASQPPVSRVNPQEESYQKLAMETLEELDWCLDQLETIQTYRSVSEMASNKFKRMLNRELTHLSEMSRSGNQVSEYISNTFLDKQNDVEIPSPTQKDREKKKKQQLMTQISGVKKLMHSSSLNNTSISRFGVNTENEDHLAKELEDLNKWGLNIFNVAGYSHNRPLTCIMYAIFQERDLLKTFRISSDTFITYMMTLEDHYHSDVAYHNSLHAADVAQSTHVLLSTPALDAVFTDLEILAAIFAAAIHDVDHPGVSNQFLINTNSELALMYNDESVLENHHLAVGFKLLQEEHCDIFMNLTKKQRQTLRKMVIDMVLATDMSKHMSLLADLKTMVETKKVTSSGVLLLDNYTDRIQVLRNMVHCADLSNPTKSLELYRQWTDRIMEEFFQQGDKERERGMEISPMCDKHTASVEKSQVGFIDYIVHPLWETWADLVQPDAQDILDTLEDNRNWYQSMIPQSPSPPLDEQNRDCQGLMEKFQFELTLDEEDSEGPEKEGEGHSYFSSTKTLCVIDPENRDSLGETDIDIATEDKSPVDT
Test: In-vitro assay for PDE4 enzymes, real-time enzyme-coupled spectrophotometric assay, PDE4B Activity (Table 10)
Format: biochemical
Details: human PDE4B (hPDE4B), enzyme-coupled spectrophotometric assay; read-out: PDE4B Activity, hPDE4B
We begin with a simple list: items and their reported IC50.

Consider the worked cases shown below.
COc1ccc(Cc2ccc(N3CCN(C(N)=O)CC3)nc2)c(F)c1-c1cccc(Cl)c1 = < 5 µM
COc1ccc(Cc2ccc(Br)nc2)c(F)c1-c1cccc(Cl)c1 = < 5 µM
CN1CC[C@@H](Oc2ccc(Cc3ccc(NC(N)=O)cc3)cc2-c2cccc(Cl)c2)C1 = 21 to 40 µM

Request: IC50, test system PDE4B (Homo sapiens), entry `CCNC(=O)Nc1ncc(Cc2ccc(OC)c(-c3cccc(C(C)=O)c3)c2F)cn1`
< 5 µM

Request: IC50, test system PDE4B (Homo sapiens), entry `COc1ccc(Oc2ccc(F)cc2)cc1-c1cccc([N+](=O)[O-])c1`
< 5 µM

Request: IC50, test system PDE4B (Homo sapiens), entry `O=[N+]([O-])c1cccc(-c2cc(Cc3ccc(Cl)nc3)ccc2O)c1`
5 to 20 µM

Request: IC50, test system PDE4B (Homo sapiens), entry `COc1ccc(Cc2ccc3c(c2)OCO3)c(F)c1-c1cccc(Cl)c1`
< 5 µM

Request: IC50, test system PDE4B (Homo sapiens), entry `COc1ccc(Cc2ccc(NC(C)=O)cc2)c(F)c1-c1cccc(Cl)c1`
< 5 µM

Request: IC50, test system PDE4B (Homo sapiens), entry `O=c1ccc(Cc2ccc(O)c(-c3cccc([N+](=O)[O-])c3)c2)n[nH]1`
5 to 20 µM

Request: IC50, test system PDE4B (Homo sapiens), entry `COc1ccc(C(=O)c2ccc(N)cc2)cc1-c1ccc2c(c1)OCCO2`
< 5 µM
